Consider the following substances and their measured MIC90 readings.
test system: Klebsiella pneumoniae; test: Antibacterial activity against Klebsiella pneumoniae M9140 clinical isolate expressing blaCIT gene by microdilution test; type: functional

Example entries begin here.
> print(dat)
                     substance  measured.property  endpoint.result
1     H-RIVQRIKKWLLKWKKLGY-NH2              MIC90         32 µg/mL
2  H-WPKWWKWKRRWGRKKAKKRRG-NH2              MIC90       1020 µg/mL

API: the following record is the query input.
Item H-GLLKKWLKKWKEFKRIVGY-NH2 has what recorded MIC90?
32 µg/mL
